Target: T1, murine GPC3-His protein (Sino Biological, Cat. No. 50989-M08B) (murine, UniProt Q8CFZ4 25-558)
T1 construct: Bought protein; also called murine GPC3 protein; mouse GPC3-his protein; not shown: His tag
T1 sequence (Q8CFZ4 25-558 limits assumed): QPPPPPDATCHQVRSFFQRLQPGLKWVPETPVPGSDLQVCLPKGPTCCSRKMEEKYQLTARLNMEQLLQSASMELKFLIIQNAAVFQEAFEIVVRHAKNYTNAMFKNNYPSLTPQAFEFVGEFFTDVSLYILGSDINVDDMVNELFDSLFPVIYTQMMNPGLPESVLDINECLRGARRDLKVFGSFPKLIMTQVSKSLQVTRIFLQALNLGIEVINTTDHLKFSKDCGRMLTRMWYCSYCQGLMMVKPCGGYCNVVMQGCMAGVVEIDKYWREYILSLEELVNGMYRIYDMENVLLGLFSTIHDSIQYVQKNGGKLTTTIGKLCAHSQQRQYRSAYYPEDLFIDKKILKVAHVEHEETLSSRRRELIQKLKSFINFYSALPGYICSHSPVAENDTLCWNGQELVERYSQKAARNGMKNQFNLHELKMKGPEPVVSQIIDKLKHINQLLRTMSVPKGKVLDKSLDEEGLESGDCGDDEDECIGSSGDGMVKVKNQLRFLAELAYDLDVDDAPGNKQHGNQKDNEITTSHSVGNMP
Assay: ELISA, coated antigen
attribute.measured: binding result

{"columns": ["binder", "attribute.measured", "reported.value"],
 "data": [
  ["hAb007LH2L1a (antibody, human IgG1, V domains shown, Humanized F3.81.19) VH: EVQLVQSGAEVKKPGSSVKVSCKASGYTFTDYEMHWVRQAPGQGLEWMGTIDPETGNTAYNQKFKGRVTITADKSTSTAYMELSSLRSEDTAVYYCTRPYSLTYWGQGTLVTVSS VL: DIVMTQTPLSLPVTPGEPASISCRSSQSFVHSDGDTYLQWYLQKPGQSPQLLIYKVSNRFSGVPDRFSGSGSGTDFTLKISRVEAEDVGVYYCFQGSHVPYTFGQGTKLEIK", "binding result", "no binding"],
  ["hAb007LH1L1 (antibody, human IgG1, V domains shown, Humanized F3.81.19) VH: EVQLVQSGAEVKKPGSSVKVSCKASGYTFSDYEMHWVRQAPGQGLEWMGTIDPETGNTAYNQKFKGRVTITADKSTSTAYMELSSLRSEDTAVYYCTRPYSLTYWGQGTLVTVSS VL: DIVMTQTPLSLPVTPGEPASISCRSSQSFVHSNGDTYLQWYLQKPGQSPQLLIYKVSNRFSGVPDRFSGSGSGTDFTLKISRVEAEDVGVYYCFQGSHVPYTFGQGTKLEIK", "binding result", "no binding"]
]}
